System: Pseudomonas aeruginosa ATCC 27853
testSummary: MIC by broth microdilution, P. aeruginosa reference strain
Format: cell-based
appliedConditions: ATCC 27853
endpointName: MIC (ug/mL) P. aeruginosa
Report the figure along with its unit, number first.

Q: Field: MIC (ug/mL) P. aeruginosa (Pseudomonas aeruginosa ATCC 27853). Entry: H-QWKIRVRLSA-OH [ID12, H-Q-W-KIRVRLSA-OH]
A: 64 µg/mL

Q: Given the entry H-YKKIRVRLSA-OH [ID7, H-Y-KKIRVRLSA-OH] , what MIC (ug/mL) P. aeruginosa was observed with Pseudomonas aeruginosa ATCC 27853?
A: 256 µg/mL

Q: Record lookup: for Pseudomonas aeruginosa ATCC 27853, what MIC (ug/mL) P. aeruginosa belongs to H-QFKIRVRLSA-OH [ID8, H-Q-F-KIRVRLSA-OH] ?
A: 128 µg/mL

Source of measurements: patent US8785399B2
